Data provenance: patent US20240074990A1

Tested target: SARS-CoV-2 3CL protease (Severe acute respiratory syndrome coronavirus 2)
Method summary: In-vitro enzyme activity inhibition test on SARS-CoV-2 3CL protease (fluorescence resonance energy transfer method)
Assay type: biochemical
Assay context: IC50, SARS-CoV-2 3CL protease, FRET, three parallel tests
Reported values of pIC50 for individual entries
// scale note: pIC50 = -log10(conc_M); give the bare number

Cc1cc2c(C(C)C)c(O)c(O)c(C=O)c2c(O)c1-c1c(C)cc2c(C(C)C)c(O)c(O)c(C=O)c2c1O (single isomer, unassigned) [(+)- gossypol, (+)-gossypol] = 4.12

Now take the following compound into account.
Enter reported pIC50 observed with SARS-CoV-2 3CL protease (Severe acute respiratory syndrome coronavirus 2) for Cc1cc2c(C(C)C)c(O)c(O)c(C=O)c2c(O)c1-c1c(C)cc2c(C(C)C)c(O)c(O)c(C=O)c2c1O [Gossypol, gossypol] 5.16

====

Tested target: SARS-CoV 3CL protease (Severe acute respiratory syndrome coronavirus)
Method summary: biochemical
Assay context: SARS-CoV 3CL protease, FRET, three parallel tests; read-out: IC50
Metric: pIC50
// scale note: pIC50 = -log10(conc_M); give the bare number

Enter reported pIC50 observed with SARS-CoV 3CL protease (Severe acute respiratory syndrome coronavirus) for CC(=O)O.Cc1cc2c(C(C)C)c(O)c(O)c(C=O)c2c(O)c1-c1c(C)cc2c(C(C)C)c(O)c(O)c(C=O)c2c1O [Acetate gossypol, acetate gossypol] 5.29

====

Tested target: SARS-CoV-2 3CL protease (Severe acute respiratory syndrome coronavirus 2)
Method summary: In-vitro enzyme activity inhibition test on SARS-CoV-2 3CL protease (fluorescence resonance energy transfer method)
Format: biochemical
Assay context: SARS-CoV-2 3CL protease, FRET, three parallel tests; read-out: IC50
Metric: IC50
State the value, then name its unit.

Bench note: what IC50 did CC(=O)O.Cc1cc2c(C(C)C)c(O)c(O)c(C=O)c2c(O)c1-c1c(C)cc2c(C(C)C)c(O)c(O)c(C=O)c2c1O [Acetate gossypol, acetate gossypol] show? 6.09 µM
